- Test: Liquid-liquid extraction from aqueous lithium-containing solution, ICP detection: sodium;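 further: sodium measured by inductively coupled plasma optical emission spectrometry in the diluted aqueous phase left after shaking with the organic phase and phase separation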
- Protocol Conditions: feed B7 (cLi 0.833, cNa 55.60, cK 5.37 g/L, pH 12.05), 26°C; organic phase and phase ratio per example
Please use Satisfied for extraction rate for sodium ions under 8% and Not satisfied for everything else, ties included.

Study these solved cases before continuing.
# Molecule, Classification
records = [
    ("COc1cccc(O)c1C(C)=O [Example 31, 2-hydroxy-6-methoxyacetophenone]", "Not satisfied"),
    ("CC(=O)c1ccc([N+](=O)[O-])cc1O [Example 35, 2-hydroxy-4-nitrocetophenone]", "Satisfied"),
    ("CC(=O)c1cc(I)ccc1O [Example 39, 2-hydroxy-5-iodoacetophenone]", "Not satisfied"),
    ("CC(=O)c1cc(Cl)cc([N+](=O)[O-])c1O [Example 37, 5-chloro-2-hydroxy-3-nitrocetophenone]", "Not satisfied"),
    ("COc1ccc(C(C)=O)c(O)c1OC [Example 33, 2-hydroxy-3,4-dimethoxyacetophenone]", "Not satisfied"),
]

Input: Record O=C(c1ccccc1)c1cc(Cl)ccc1O [Example 38, 2-hydroxy-5-chlorodibenzophenone] : is its extraction rate for sodium ions strictly below 8%?
Output: Not satisfied
